B1: Hairpin Ribozyme (parent)
chain: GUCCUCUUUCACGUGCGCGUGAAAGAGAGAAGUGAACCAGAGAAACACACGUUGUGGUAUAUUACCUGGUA

Variants of: B1
Test Protocol: self-cleavage, relative activity (ratio to wild type); higher = more cleavage; co-transcriptional
Answer each item with its documented self-cleavage.

In: Given the entry U52C G69U , report its measured self-cleavage.
Out: 0.21

In: Requested read-out: self-cleavage. Entry: U55A C65G
Out: 0.19

In: Which self-cleavage is listed for C3A G57A ?
Out: 0.131

In: Fill in: self-cleavage of A59U U67A is ___
Out: 0.141

In: Any idea what its self-cleavage is? The variant is U14A C37G
Out: 0.295

In: Requested field: self-cleavage. Item: G13U A31G
Out: 0.499

In: Query: self-cleavage; subject: U9A G51C
Out: 0.673

In: Tell me the measured self-cleavage of U20A G68U , please.
Out: 0.297

In: Need self-cleavage of G56C G57C , thanks.
Out: 0.173

In: Looking for the measured self-cleavage of U9A A36C , can you help?
Out: 0.456

In: Reported self-cleavage for U9G G54C : what is it?
Out: 0.341

In: Report self-cleavage for A28G G54C please.
Out: 0.432

In: Report self-cleavage for U9C A11G please.
Out: 0.692

In: What measured self-cleavage goes with C18G U58A ?
Out: 0.632

In: # self-cleavage lookup, item U20A A28U
Out: 0.497

In: Look up self-cleavage: G25C U55C
Out: 0.108

In: For the variant A31U U53C , what self-cleavage is on record?
Out: 0.133

In: Endpoint output: self-cleavage of A11C A59G . Value?
Out: 0.161

In: Can you look up the measured self-cleavage of A31G A45G for me?
Out: 0.0922

In: I'd like to know its self-cleavage. The variant in question is C18U U33A
Out: 0.242

In: I would be grateful if you could share the reported self-cleavage for A44G G51A .
Out: 0.123

In: What value of measured self-cleavage is listed for G13C C46A ?
Out: 0.137

In: Any idea what self-cleavage was measured for A28G A71C ?
Out: 1.26

In: # lookup: self-cleavage of U7G U60A
Out: 0.795

In: Endpoint output: self-cleavage of A49U U67C . Value?
Out: 0.11

In: So what's the measured self-cleavage for this one? C10U A11U
Out: 0.577

In: Return reported self-cleavage; argument: G40U U52A
Out: 0.207

In: # input variant: C38A C46G ; wanted: its self-cleavage
Out: 0.133

In: Param item = U2G A36U ; retrieve measured self-cleavage.
Out: 0.318

In: // self-cleavage lookup, key: "C10A"
Out: 0.722

In: Which self-cleavage reading was recorded for the variant C38U A49C ?
Out: 0.245

In: Which self-cleavage value belongs to C12U A23G ?
Out: 0.965

In: Could you tell me which self-cleavage is on file for A23G C65U ?
Out: 0.349

In: Look up self-cleavage for this variant: U5A U58G
Out: 0.251

In: What measured self-cleavage goes with G69A U70C ?
Out: 0.387

In: // self-cleavage lookup, key: A23U C66G
Out: 0.222

In: Given the entry G27C G57U , report its measured self-cleavage.
Out: 0.174

In: Consider the variant C6G U8A and give its measured self-cleavage.
Out: 0.263

In: Field request: self-cleavage | item: C3A U53C
Out: 0.664

In: Given the entry A11C A36C , report its measured self-cleavage.
Out: 0.471

In: Fill blank: measured self-cleavage of the variant A31C C48U is ____.
Out: 0.159

In: Any idea what self-cleavage was measured for U52A A64C ?
Out: 0.253

In: Which self-cleavage is listed for G29U A44C ?
Out: 0.251

In: Tell me the measured self-cleavage of G13A U14A , please.
Out: 0.99

In: Tell me the measured self-cleavage of A49U U53A , please.
Out: 0.139

In: Fill in the blank: the reported self-cleavage of U8G A44U is ____.
Out: 0.184

In: Entry A30U A49U has what self-cleavage?
Out: 0.274

In: self-cleavage lookup needed for C3A G19A , thanks.
Out: 0.59

In: Look at this variant and give its reported self-cleavage. C18A A43C
Out: 0.107

In: Form field: reported self-cleavage of C18U U58G
Out: 0.991

In: Quick one: self-cleavage of A41G U70G ?
Out: 0.677

In: Record request: self-cleavage value, item C10U U67C
Out: 0.206

In: Any idea what self-cleavage was measured for G54A A61U ?
Out: 0.254

In: Need self-cleavage of C16A A71C , thanks.
Out: 1.1

In: What measured self-cleavage goes with G40A A45U ?
Out: 0.149

In: Look at this variant and give its reported self-cleavage. G13U U53C
Out: 0.477

In: Any idea what its self-cleavage is? The variant is U9A G27A
Out: 0.25

In: Quick one: self-cleavage for C4A U63G ?
Out: 0.269

In: Param item = C3A U70C ; retrieve measured self-cleavage.
Out: 0.675

In: Which measured self-cleavage value corresponds to G29A U63G ?
Out: 0.116

In: Fill blank: measured self-cleavage of the variant U20A G34A is ____.
Out: 0.993

In: Value lookup for self-cleavage; key = U7C G34U
Out: 1.32

In: I would be grateful if you could share the reported self-cleavage for A35U A47U .
Out: 0.185

In: Fill in: self-cleavage of U8A C65U is ___
Out: 0.258

In: Which self-cleavage value is on record for G32U C38U ?
Out: 0.0994

In: // query self-cleavage value for entry C4G G19U
Out: 0.225

In: I would be grateful if you could share the reported self-cleavage for G1U C37A .
Out: 0.158

In: Fill in: self-cleavage of G1A U58G is ___
Out: 0.256

In: Sample C6A U7G — what was its self-cleavage?
Out: 0.447

In: So what does the record say about self-cleavage for U20C U62C ?
Out: 0.462

In: What value of self-cleavage has been reported for the following variant? C4U G17U
Out: 0.313

In: # query: self-cleavage of entry C12U G56A
Out: 0.177

In: State the recorded self-cleavage for this entry: A43U U52C
Out: 0.143

In: Name the recorded self-cleavage for U8C A30G .
Out: 0.144

In: What measured self-cleavage goes with C3G C37A ?
Out: 0.162

In: Requested read-out: self-cleavage. Entry: C12A A61G
Out: 0.174

In: Need self-cleavage of C4A G40U , thanks.
Out: 0.141

In: Data request, read-out self-cleavage, for U8A A35U
Out: 0.459

In: For the variant U20C A44C , what self-cleavage is on record?
Out: 0.155

In: Please give the measured self-cleavage for this variant: A41U U55G
Out: 0.485

In: Query: self-cleavage; subject: U33G C38A
Out: 0.139

In: Return reported self-cleavage; argument: U9C A71G
Out: 0.933

In: Find the recorded self-cleavage belonging to C10G G40A and report it.
Out: 0.194

In: What measured self-cleavage goes with A26U G29U ?
Out: 0.151

In: Which self-cleavage value belongs to U52G U67G ?
Out: 0.156

In: Form field: reported self-cleavage of A23G C46A
Out: 0.132

In: Find the recorded self-cleavage belonging to U20A G34C and report it.
Out: 1.26

In: Recorded self-cleavage of "A45G" , please.
Out: 0.177

In: // returns reported self-cleavage for input G42A U55C
Out: 0.103

In: Using the record for C16U U58G , report its self-cleavage.
Out: 0.765

In: Which measured self-cleavage value corresponds to A26G U55A ?
Out: 0.283
